target or test system: Nav1.7 (or SCN9A) channel (Homo sapiens, UniProt Q15858)
Construct: expressed in transfected cells
Sequence (Q15858 whole entry): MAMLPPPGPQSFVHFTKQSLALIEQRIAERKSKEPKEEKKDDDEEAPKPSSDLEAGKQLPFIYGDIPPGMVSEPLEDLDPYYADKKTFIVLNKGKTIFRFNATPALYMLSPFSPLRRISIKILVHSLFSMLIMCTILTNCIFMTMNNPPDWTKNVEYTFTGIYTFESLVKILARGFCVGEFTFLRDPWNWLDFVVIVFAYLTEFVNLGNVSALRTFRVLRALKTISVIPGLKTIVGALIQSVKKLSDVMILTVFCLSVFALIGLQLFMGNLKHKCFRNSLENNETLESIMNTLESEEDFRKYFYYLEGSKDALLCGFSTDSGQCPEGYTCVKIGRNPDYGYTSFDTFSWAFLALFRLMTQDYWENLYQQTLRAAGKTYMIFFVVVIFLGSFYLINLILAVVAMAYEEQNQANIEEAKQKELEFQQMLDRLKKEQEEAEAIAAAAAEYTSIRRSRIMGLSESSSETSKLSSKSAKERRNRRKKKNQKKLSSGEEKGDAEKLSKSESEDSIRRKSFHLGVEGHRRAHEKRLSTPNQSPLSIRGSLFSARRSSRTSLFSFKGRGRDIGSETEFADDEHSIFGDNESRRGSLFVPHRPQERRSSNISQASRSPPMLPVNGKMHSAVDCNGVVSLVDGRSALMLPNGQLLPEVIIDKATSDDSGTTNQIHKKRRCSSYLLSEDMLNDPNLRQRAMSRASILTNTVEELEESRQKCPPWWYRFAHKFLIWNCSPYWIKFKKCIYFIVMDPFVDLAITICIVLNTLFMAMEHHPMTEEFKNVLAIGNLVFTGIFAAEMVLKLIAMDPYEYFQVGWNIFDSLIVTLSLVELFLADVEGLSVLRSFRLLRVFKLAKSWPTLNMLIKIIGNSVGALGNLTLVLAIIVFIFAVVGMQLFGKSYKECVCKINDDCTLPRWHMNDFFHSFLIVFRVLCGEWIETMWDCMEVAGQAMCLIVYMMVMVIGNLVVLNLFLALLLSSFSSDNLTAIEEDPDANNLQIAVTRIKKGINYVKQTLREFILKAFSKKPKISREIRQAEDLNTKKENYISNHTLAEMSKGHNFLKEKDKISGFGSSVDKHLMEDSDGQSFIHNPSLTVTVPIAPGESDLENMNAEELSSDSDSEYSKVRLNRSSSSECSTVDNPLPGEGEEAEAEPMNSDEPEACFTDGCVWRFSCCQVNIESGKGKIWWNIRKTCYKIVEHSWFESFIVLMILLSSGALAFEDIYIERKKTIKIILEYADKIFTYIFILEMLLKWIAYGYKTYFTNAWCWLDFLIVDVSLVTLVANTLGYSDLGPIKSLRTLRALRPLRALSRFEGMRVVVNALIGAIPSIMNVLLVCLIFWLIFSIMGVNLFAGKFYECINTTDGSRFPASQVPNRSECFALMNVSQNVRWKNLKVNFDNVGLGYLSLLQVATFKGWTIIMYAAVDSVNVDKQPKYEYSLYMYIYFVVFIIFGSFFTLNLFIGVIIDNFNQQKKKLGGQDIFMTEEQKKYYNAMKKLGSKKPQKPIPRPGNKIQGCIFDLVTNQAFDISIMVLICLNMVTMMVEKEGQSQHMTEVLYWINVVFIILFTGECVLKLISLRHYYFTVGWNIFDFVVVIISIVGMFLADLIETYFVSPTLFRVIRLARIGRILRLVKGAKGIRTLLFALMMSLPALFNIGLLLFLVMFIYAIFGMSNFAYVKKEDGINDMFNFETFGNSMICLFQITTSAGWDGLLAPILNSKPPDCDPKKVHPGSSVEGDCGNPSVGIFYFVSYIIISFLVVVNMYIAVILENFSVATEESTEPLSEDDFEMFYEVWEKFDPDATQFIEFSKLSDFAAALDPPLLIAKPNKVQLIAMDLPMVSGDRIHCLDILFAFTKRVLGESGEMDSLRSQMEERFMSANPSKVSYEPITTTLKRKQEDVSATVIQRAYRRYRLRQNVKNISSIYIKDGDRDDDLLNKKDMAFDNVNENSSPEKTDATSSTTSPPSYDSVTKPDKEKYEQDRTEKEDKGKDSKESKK
protocol summary: Nav1.7 PatchXpress 7000 automated electrophysiology assay (HEK cells stably expressing hSCN9A)
Assay type: cell-based
experimental setup: voltage-clamped at V1/2 of inactivation, read-out: Nav1.7 EIC50
Each entry below carries its recorded IC50.

COc1cc(OC(F)(F)F)ccc1Oc1cc(F)c(C(=O)NS(C)(=O)=O)cc1F [Example 72] | > 1000 nM
CS(=O)(=O)NC(=O)c1cc(F)c(Oc2cccc(C#N)c2)cc1F [Example 125] | > 3000 nM
COc1ccccc1Sc1ccc(C(=O)NS(C)(=O)=O)cc1 [Example 324] | > 3000 nM

API: the following record is the query input.
# return IC50 of CS(=O)(=O)NC(=O)c1c(F)cc(Oc2ccc(Cl)c(C(F)(F)F)c2)c(F)c1F [Example 32] (system: Nav1.7 (or SCN9A) channel (Homo sapiens, UniProt Q15858))
> 1000 nM

###

target or test system: Nav1.7 (or SCN9A) channel (Homo sapiens, UniProt Q15858)
Construct: expressed in transfected cells
protocol summary: Nav1.7 PatchXpress 7000 automated electrophysiology assay (HEK cells stably expressing hSCN9A)
Format: cell-based
experimental setup: voltage-clamped at V1/2 of inactivation, read-out: Nav1.7 EIC50
property name: IC50

Look over these answered cases.
CS(=O)(=O)NC(=O)c1cc(F)c(Oc2cc(Cl)ccc2Cl)cc1F [Example 105] | > 3 µM
CS(=O)(=O)NC(=O)c1cc(F)c(Oc2ccccc2C(F)(F)F)cc1F [Example 113] | > 3 µM
COc1cc(Cl)ccc1Oc1cc(OC)c(C(=O)NS(C)(=O)=O)cc1F [Example 61] | > 10 µM

Please supply the value of reported IC50 for the item CS(=O)(=O)NC(=O)c1ccc(Oc2ccccc2OCc2ccccc2)cc1 [Example 176]
> 10 µM

###

Each entry below carries its recorded IC50.
target or test system: Nav1.7 (or SCN9A) channel (Homo sapiens, UniProt Q15858)
Construct: expressed in transfected cells
protocol summary: Nav1.7 PatchXpress 7000 automated electrophysiology assay (HEK cells stably expressing hSCN9A)
Type: cell-based
experimental setup: voltage-clamped at V1/2 of inactivation, read-out: Nav1.7 EIC50

CS(=O)(=O)NC(=O)c1cc(F)c(Oc2cc(C(F)(F)F)ccc2Cl)cc1F | > 1 µM

Please supply the value of reported IC50 for the item `COc1cc(F)cc(Oc2cc(F)c(C(=O)NS(C)(=O)=O)cc2F)c1`
> 3 µM

Please supply the value of reported IC50 for the item `CS(=O)(=O)NC(=O)c1ccc(Oc2ccccc2Cl)cc1`
> 10 µM

Please supply the value of reported IC50 for the item `CCc1cc(F)ccc1Oc1ccc(C(=O)NS(C)(=O)=O)c(F)c1`
> 1 µM

Please supply the value of reported IC50 for the item `CS(=O)(=O)NC(=O)c1cc(F)c(Oc2c(F)cccc2Cl)cc1F`
> 3 µM

Please supply the value of reported IC50 for the item `CCOc1ccccc1Oc1cc(F)c(C(=O)NS(C)(=O)=O)cc1F`
> 1 µM

Please supply the value of reported IC50 for the item `CS(=O)(=O)NC(=O)c1ccc(Oc2ccccc2F)cc1`
> 10 µM

###

Each entry below carries its recorded IC50.
target or test system: Nav1.7 (or SCN9A) channel (Homo sapiens)
Construct: expressed in transfected cells
protocol summary: Nav1.7 PatchXpress 7000 automated electrophysiology assay (HEK cells stably expressing hSCN9A)
Assay type: cell-based
experimental setup: voltage-clamped at V1/2 of inactivation, read-out: Nav1.7 EIC50
Method: The ability of the compounds of formula (I) to block the Nav1.7 (or SCN9A) channel was measured using the assays described below. […] HEK cells stably transfected with hSCN9A were viewed under Hoffman contrast optics and placed in front of an array of flow pipes emitting either control or compound-containing extracellular solutions. […] The voltage-dependence of inactivation was determined by applying a series of depolarizing prepulses (8 sec long in 10 mV increments) from a negative holding potential. […]

Look over these answered cases.
COc1cc(C(F)(F)F)ccc1Oc1cc(F)c(C(=O)NS(C)(=O)=O)cc1F | > 1 µM
COc1cc(Oc2cccc(Cl)c2)ccc1C(=O)NS(C)(=O)=O | > 3 µM
CCc1cccc(Oc2cc(F)c(C(=O)NS(C)(=O)=O)cc2F)c1 | > 3 µM

# return IC50 of `COc1ccc(Cl)c(Oc2ccc(C(=O)NS(C)(=O)=O)cc2)c1` (system: Nav1.7 (or SCN9A) channel (Homo sapiens))
> 10 µM

# return IC50 of `Cc1ccc(F)cc1Oc1cc(F)c(C(=O)NS(C)(=O)=O)cc1F` (system: Nav1.7 (or SCN9A) channel (Homo sapiens))
> 3 µM
